System: UO-31 renal
Assay: NCI-60 one-dose screen, 48 h
Conditions: 10 µM unless noted
The panel holds about 83,000 compounds, 20% with a hit somewhere; the sample as a whole holds those more often. Calls of active or inactive are those of the source. Rule for the calls: active = growth percent below 10; inactive = the rest.
Lab note: assign the record to one of Y = active, N = inactive

Could you please tell me the result logged for COc1nc2ccc(C)cc2cc1-c1nc2c(cnn2-c2ccccc2)c(=O)[nH]1 in this assay?
N

Can you look up the reported call for O=[N+]([O-])c1ccc(Cl)c(-c2cc(CCCCO)on2)c1 for me?
N

Assay outcome for C=C1C(=O)O[C@H]2[C@H]1CC/C(COC(=O)C(C)c1ccc(CC(C)C)cc1)=C\CC[C@@]1(C)O[C@@H]21 (some centres undefined) : what was it?
Y

For Oc1c(I)cc(I)cc1CNCCCN(Cc1ccccn1)Cc1ccccn1 , what call appears in the results of this test?
Y

###

Tested on: T-47D breast
Assay: NCI-60 one-dose screen, 48 h
Conditions: 10 µM unless noted
The panel holds about 83,000 compounds, 20% with a hit somewhere; the sample as a whole holds those more often. Active and inactive are the calls of the source. How the source made its calls: active means growth percent below 10; inactive means the rest.
Assign a class; possible classes are True for active, False for inactive

What was the test verdict on Cc1ccc(C(CC(=O)O)c2c(C)[nH][nH]c2=O)cc1 (stereo not given) ?
False

Please indicate how the test categorized O=C(CCOCCNC(=O)COc1ccc2c(c1)OCC(c1ccc(F)cc1)C2=O)NCCCC(O)(P(=O)(O)O)P(=O)(O)O (stereo not given) .
False

Outcome? CCOC(=O)c1cn2ncnc(Oc3ccc(NC(=O)NCCN(CC)CC)c(Cl)c3)c2c1C
False

I'd appreciate the recorded outcome for Cc1c(C(=O)N[C@@H](Cc2ccccc2)C(=O)C(=O)NCc2ccc(F)cc2)[nH]c2ccccc2c1=O from this test.
False

Test call, this compound: N#CC1=C(N)Oc2c(sc3c(Br)cccc23)C1c1ccc([N+](=O)[O-])cc1 (stereo not given)
False

Could you kindly confirm the outcome this assay logged for S=c1nc(-c2ccccc2)oc(=NC2CCCCC2)n1C1CCCCC1 ?
False

Can you look up the reported call for CCCCCCCCCCCCCCCCCCOc1ccccc1CC(=O)OCC[N+](CC)(CC)CC for me?
False

Recorded call for Cc1nn(-c2ccccc2)c(-n2ccnc2)c1/C=N/Nc1nc(-c2ccc(Cl)c(Cl)c2)cs1 ?
False

Dear all, I need the recorded test outcome for S=C(c1cccs1)N1CCN(c2cccc(Cl)c2)CC1 , thank you.
False

Called result for CCCSc1nc2ccc(C)cc2cc1/C=[N+](\[O-])c1ccccc1
False

Call for entry CCc1cccc2c3c(sc12)C(c1ccc(Cl)cc1)C(C#N)=C(N)O3 (stereo not given) :
False

Would you mind telling me which call this test gave COc1ccc(-n2c(N)c(-c3nc4ccccc4[nH]3)cc(C#N)c2=O)cc1 ?
False

Which outcome was assigned to O=C1c2cccc3cccc(c23)C(=O)N1Nc1nc(NC2CCCCC2)nc(N2CCOCC2)n1 in this test?
False

Identify the outcome logged in this assay for the compound shown: CC(=O)CC(c1ccccc1)c1c(C)[nH]c2ccccc12 (stereo not given)
False

Status in this test for C=C1C(=O)O[C@H]2[C@H]1CC/C(COC(=O)C(C)c1ccc(CC(C)C)cc1)=C\CC[C@@]1(C)O[C@@H]21 (stereo not given in full) ?
True

Hi team, can someone confirm the assay call for COc1ccc(-c2[nH]c3ccc(OC)cc3c2/C=C(\C#N)S(=O)(=O)c2ccccc2)cc1 ?
False

Look up the recorded call for NCCOc1ncccc1/C=C1\c2ccccc2-c2ccc(C(F)F)cc21 in this test.
False

Can you look up the reported call for O=C(CSc1nccc(Nc2ccc(S(=O)(=O)Nc3nccs3)cc2)n1)c1ccc(C(F)(F)F)cc1 for me?
False

Hi team, can someone confirm the assay call for O=CN1N=C(c2ccc(Nc3ccnc4cc(Cl)ccc34)cc2)CC1c1ccccc1 (stereo not given) ?
False

Called result for COc1ccc2c(c1)/C(=C/c1sc(=S)n(Cc3ccco3)c1O)C=N2
False

Check the results log: what was the call for c1ccc(-c2nc3nonc3nc2-c2ccccc2)cc1 ?
False

Recorded call for O=C(O)CCC(=O)Nc1nnc(-c2ccccc2)s1 ?
False

Returns: the outcome recorded for Cn1cc(-c2cc3ncnc(Nc4ccc(CC(=O)Nc5cc(C(C)(C)C)nn5C)cc4)c3s2)cn1 in this assay.
False

Assay result, entry C=C1C(=O)O[C@H]2[C@H]1CC/C(COC(=O)CSCC(=O)OC/C1=C/CC[C@@]3(C)O[C@H]3[C@H]3OC(=O)C(=C)[C@@H]3CC1)=C\CC[C@@]1(C)O[C@@H]21 — outcome?
False

// return assay outcome for COc1cc(/C=N/NC(=O)c2ccc(C)nc2)cc(OC)c1OC
False

Dear all, I need the recorded test outcome for CCOC(=O)C1=C(N)Oc2c(sc3c(C)cccc23)C1c1ccc(F)cc1 (stereo not given) , thank you.
False

// return assay outcome for Cc1cc2nc3ccc(N=Nc4ccc(N(C)C)cc4)cc3n(-c3ccccc3)c-2cc1=N
True

Per the records of this test, what outcome belongs to CN(C)CC#Cc1ccc2ncc(C#N)c(Nc3ccc(F)c(Cl)c3)c2c1 ?
False

Per the records of this test, what outcome belongs to N#C/C(=C\c1cccc2cnccc12)n1nnc2cccc(F)c21 ?
False

Just curious, what result did COc1ccc(-c2ncnc3c2ncn3CC#CCCl)cc1 get here?
False

###

System: NCI-H460 lung
Assay: NCI-60 one-dose screen, 48 h
Details: 10 µM unless noted
About 83,000 compounds went through this panel and 20% of them were active in at least one assay; those are over-represented in the sample as a whole. Calls of active or inactive are those of the source. How the source made its calls: active means growth percent below 10; inactive means the rest.
Your answer must be one of the following: active, inactive

Dear colleague, could you share the recorded outcome for Cn1cc(C(=O)c2nc(-c3cn(C)c4ccc(F)cc34)no2)c2cc(F)ccc21 when you have a moment?
inactive

Call for entry COc1ccc(-c2nn(C(=O)c3cc(OC)c(OC)c(OC)c3)c3cc(N)ccc23)cc1 :
active

Outcome? Cc1cc2nc3ccc(N=Nc4ccc(N(C)C)cc4)cc3n(-c3ccccc3)c-2cc1=N
active

What did the test return for O=c1cc(SCc2ccccc2)nc[nH]1 ?
inactive

Please state the recorded outcome for this molecule: O=C1CCC(C(=O)NCCNCCNC(=O)C2CCC(=O)N2)N1 (stereo not given)
inactive

###

Test system: HCT-15 colon
Assay: NCI-60 one-dose screen, 48 h (100 = growth as untreated, 0 = no growth, -100 = all killed)
Settings: 10 µM unless noted
Protocol: Growth inhibition of the HCT-15 human tumor cell line is measured as a screen for anti-cancer activity. Cells are grown in 96 well plates and exposed to the test compound for 48 hours. Compounds are tested at a single concentration, which is 10^-5 M for most compounds. The reported endpoint is percent growth (GI% or GIPRCNT), where numbers from 0 - 100% represent growth inhibition, and numbers from -100% - 0 represent cell death. For example, a value of 40 represents 60% growth inhibition. […]
This is part of a sample that, as a whole, favours compounds with a hit. Of some 83,000 tested, about 20% had one in any assay.
For each record, write down the corresponding growth.
Provide only the numeric value, understood in %.

Could you please provide reported growth for Cc1c(C(=O)NCCCc2ccccc2)sc2ncc(-c3ccc(Br)cc3)n12 ? Thanks!
104

Give a short answer stating reported growth for Oc1ccc(CCl)c2cccnc12 .
36.6

Kindly indicate its recorded growth. Item: Cc1ccc(-c2cnc3sc(C(=O)NCCc4ccccc4)c(C)n23)cc1
97.9

Let me know recorded growth for O=C(Oc1cccc2ccccc12)Oc1cccc2ccccc12 , thanks.
106

Indicate the recorded growth value for this compound: Brc1c[n+](Cc2ccc3ccccc3c2)cn1Cc1ccc2ccccc2c1
93.6

Identify measured growth corresponding to NC1=NC(c2cccc(Br)c2)c2sc3ccc(Cl)cc3c2N1 (stereo unspecified)
103

Consider the compound CN1C(=C2C(=O)OC(C)(C)OC2=O)CCC1C(=O)NCc1ccc(Cl)cc1Cl (stereo unspecified) . State its measured growth.
101

State, in one line, measured growth of Nc1cc2c(cc1Br)-c1cc(Cl)ccc1C2=O
102

Look up growth of c1ccc(CO[C@H]2CO[C@H]3[C@@H]2OC[C@@H]3Oc2ccc(Nc3ncnc4ccsc34)cc2)cc1 and report it.
78.7

Given CCN(CC)c1ccc(C2=NN(C(C)=O)C(c3cc(OC)c(OC)c(OC)c3)C2)cc1 (stereo unspecified) , respond with its growth.
12.8

Determine its reported growth: C=C1C(=O)O[C@H]2[C@H]1CC/C(COC(=O)C(C)c1ccc(CC(C)C)cc1)=C\CC[C@@]1(C)O[C@@H]21 (stereo partly specified)
-56.1

Identify measured growth corresponding to CCc1ccc(Oc2c(-c3ccc(OCc4ccc(Cl)cc4)cc3O)nn(C)c2C(F)(F)F)cc1
4.91

Given the compound CC1=C(C)C(=O)C(Nc2cccc(C(=O)OC(C)(C)C)c2)=C(Br)C1=O , write its reported growth.
73.2

Specify reported growth for the compound shown: COc1ccc2c(c1)/C(=C/c1sc(=S)n(Cc3ccco3)c1O)C=N2
17.8

Answer with reported growth of CCN(CC)CCNc1nc2ccccc2c2c(=O)c3cc(Cl)ccc3sc12
39.8

Please look at this compound and report its growth: COc1ccc(C2CC(c3ccc(Nc4ccnc5cc(Cl)ccc45)cc3)=NN2C=O)cc1 (stereo unspecified)
23.6

Give the reported growth for this compound. c1ccc(Nc2cc(-c3cccnc3)[nH]n2)cc1
101

Tell me growth reported for c1ccc(OCc2nnc(-c3ccc(Oc4ccccc4)cc3)o2)cc1
103

Item C#C[C@]1(O)CC[C@H]2[C@@H]3CC=C4c5sc(Nc6cc(F)ccc6F)nc5CC[C@]4(C)[C@H]3CC[C@@]21C : provide growth
-28.4

Input CC(=O)c1ccc(Nc2nc(C(C)=O)c(C)s2)cc1 , output reported growth.
97.4

Consider the compound Nc1nn(C(=O)Nc2ccc(Cc3ccccc3)cc2)c2ccc(Cl)cc12 and give its recorded growth.
36.6

Supply reported growth belonging to this compound: COc1cccc(-c2nc(-c3ccc(NS(=O)(=O)c4ccccc4)cc3)[nH]c2-c2ccnc(Br)c2)c1
3.93

Quick one: give measured growth for COc1cc(OCc2cccc(-c3ccc(C(O)c4nccs4)cc3)c2C)cc(OC)c1CNCCNC(C)=O (stereo unspecified)
97.7

Given the compound Clc1ccc2c(c1)N(CCCN1CCCC1)c1ccccc1S2 , write its reported growth.
17.6

Consider the compound NCCOc1ncccc1/C=C1\c2ccccc2-c2ccc(C(F)F)cc21 and give its recorded growth.
28.8

Provide measured growth value, entry: c1cc2nc(-c3cn[nH]c3)c3c(c2cc1-c1cn[nH]c1)C1CCC3C1 (stereo unspecified)
47.2

In one line, give reported growth of the entry COc1ccc(C2C(N)=NNC2c2cccc(O)c2)cc1 (stereo unspecified) .
102

State its growth: COc1ccc(NC2=C(Br)C(=O)C(C)=C(C)C2=O)cc1
91.6

Determine its reported growth: NCCNc1nc2ccccc2c2c(=O)c3cccc(F)c3sc12
36.5

Identify measured growth corresponding to COc1ccc(C2=Nn3c(nnc3-c3cc(Cl)cc(Cl)c3Cl)SC2)cc1
12.1

Note growth for the compound shown: CN(C)c1ccc2nc3ccc(=[N+](C)C)c([N+](=O)[O-])c-3sc2c1
32.1
